System: NCI/ADR-RES ovarian
protocol: NCI tumour cell line growth inhibition, 48 h
assay-readout: TGI (µM)
Numbers only, in µM.

Noted for COc1cc(/C=C2\CC3C4CC=C5C[C@@H](OC(C)=O)CC[C@]5(C)C4CC[C@]3(C)C2=O)ccc1OCCCn1ccnc1 (stereo partly drawn) : its TGI reads 19.5

Noted for COc1ccc2[nH]c(Cl)c(/C=C3/C(=O)Nc4cc(C)c(OC)cc43)c2c1 : its TGI reads 6.47

Noted for NCCCn1c2ccccc2c2c3c(c4c(c21)CCC(O)CC4)C(=O)NC3=O (stereo not drawn) : its TGI reads 32.9

Turning now to a further molecule:
Noted for C=C1C(=O)OC2CC1C(O)C/C(C)=C/CC/C(C)=C/C(O)CC2C (stereo not drawn) : its TGI reads 4.8
